Below: a set of entries, each annotated with reported pKd.
Target: human Siglec-2/CD22 protein (Homo sapiens, UniProt P20273)
Sequence (P20273 20-847): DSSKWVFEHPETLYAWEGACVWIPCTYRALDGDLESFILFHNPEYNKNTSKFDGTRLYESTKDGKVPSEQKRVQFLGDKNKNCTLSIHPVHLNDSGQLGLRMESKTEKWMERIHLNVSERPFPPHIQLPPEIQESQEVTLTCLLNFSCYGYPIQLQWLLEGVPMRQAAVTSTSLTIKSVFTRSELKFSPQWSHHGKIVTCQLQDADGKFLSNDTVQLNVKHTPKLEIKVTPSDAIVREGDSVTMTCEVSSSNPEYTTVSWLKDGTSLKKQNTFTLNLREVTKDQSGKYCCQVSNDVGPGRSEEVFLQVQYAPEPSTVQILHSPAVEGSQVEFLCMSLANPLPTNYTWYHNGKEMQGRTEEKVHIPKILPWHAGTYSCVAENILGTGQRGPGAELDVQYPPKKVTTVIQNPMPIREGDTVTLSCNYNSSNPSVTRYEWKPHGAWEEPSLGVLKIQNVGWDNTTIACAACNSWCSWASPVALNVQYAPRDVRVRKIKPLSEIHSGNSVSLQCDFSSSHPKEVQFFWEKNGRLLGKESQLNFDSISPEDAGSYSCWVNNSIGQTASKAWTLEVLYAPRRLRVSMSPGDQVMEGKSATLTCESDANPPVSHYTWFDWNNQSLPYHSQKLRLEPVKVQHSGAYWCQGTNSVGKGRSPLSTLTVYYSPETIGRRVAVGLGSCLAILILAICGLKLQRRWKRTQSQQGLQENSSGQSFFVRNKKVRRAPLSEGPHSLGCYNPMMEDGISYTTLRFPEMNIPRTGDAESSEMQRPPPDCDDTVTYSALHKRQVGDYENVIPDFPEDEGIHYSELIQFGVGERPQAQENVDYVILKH
Assay: SPR binding affinity to human CD22
Conditions: steady-state analysis
pKd: −log10 of the molar value.

Some solved entries appear below for comparison.
{"structureSmilesString": "C#CCOCCCCCCO[C@]1(C(=O)O)C[C@H](O)[C@@H](NC(=O)CO)[C@H]([C@H](O)[C@H](O)CNC(=O)Cc2ccc(C(C)(C)C)cc2)O1", "propertyLabel": "pKd", "observed": "> 6.00"}
{"structureSmilesString": "C#CCCOc1ccc(CO[C@]2(C(=O)O)C[C@H](O)[C@@H](NC(=O)CO)[C@H]([C@H](O)[C@H](O)CNC(=O)Cc3ccc4nc[nH]c4c3)O2)cc1", "propertyLabel": "pKd", "observed": "5.00 to 6.00"}
{"structureSmilesString": "C#CCCC(=O)NCCCCCCO[C@]1(C(=O)O)C[C@H](O)[C@@H](NC(=O)CO)[C@H]([C@H](O)[C@H](O)CNC(=O)Cc2ccc(Cl)cc2)O1", "propertyLabel": "pKd", "observed": "> 6.00"}
{"structureSmilesString": "C#CCOCCCCCCO[C@]1(C(=O)O)C[C@H](O)[C@@H](NCC(N)=O)[C@H]([C@H](O)[C@H](O)CNC(=O)Cc2ccc(Cl)cc2)O1", "propertyLabel": "pKd", "observed": "5.00 to 6.00"}
{"structureSmilesString": "C#CCOCCOCCOCCOCCC(=O)NCCOCCOCCO[C@]1(C(=O)O)C[C@H](O)[C@@H](NC(=O)CO)[C@H]([C@H](O)[C@H](O)CNC(=O)Cc2ccc(Cl)cc2)O1", "propertyLabel": "pKd", "observed": "5.00 to 6.00"}
{"structureSmilesString": "C#CCOP(=O)(O)OCCCCO[C@]1(C(=O)O)C[C@H](O)[C@@H](NC(=O)CO)[C@H]([C@H](O)[C@H](O)CNC(=O)Cc2ccc(Cl)cc2)O1", "propertyLabel": "pKd", "observed": "> 6.00"}

Query :: I have this compound here, C#CCOCCOCCNc1c(NCCCCCCO[C@]2(C(=O)O)C[C@H](O)[C@@H](NC(=O)CO)[C@H]([C@H](O)[C@H](O)CNC(=O)c3ccccc3)O2)c(=O)c1=O , and I need its recorded pKd.
Result :: 5.00 to 6.00

Query :: I have this compound here, C#CCOCCOCCO[C@]1(C(=O)O)C[C@H](O)[C@@H](NC(=O)CO)[C@H]([C@H](O)[C@H](O)CNC(=O)Cc2ccc(OC)cc2)O1 , and I need its recorded pKd.
Result :: 5.00 to 6.00

Query :: I have this compound here, C#CCCCCCCS[C@]1(C(=O)O)C[C@H](O)[C@@H](NC(=O)CO)[C@H]([C@H](O)[C@H](O)CNC(=O)Cc2ccc(-c3ccc(O)cc3)cc2)O1 , and I need its recorded pKd.
Result :: > 6.00

Query :: I have this compound here, C#CCCCCCCCCO[C@]1(C(=O)O)C[C@H](O)[C@@H](NC(=O)CO)[C@H]([C@H](O)[C@H](O)CNC(=O)Cc2ccc(Cl)cc2)O1 , and I need its recorded pKd.
Result :: > 6.00

Query :: I have this compound here, C#CCCOc1ccc(CO[C@]2(C(=O)O)C[C@H](O)[C@@H](NC(=O)CO)[C@H]([C@H](O)[C@H](O)CNC(=O)Cc3cccc(-c4ccccc4O)c3)O2)cc1 , and I need its recorded pKd.
Result :: > 6.00

----------
Reported Kd, mouse Siglec-2-Fc-Avi (CD22) (Mus musculus, UniProt P35329).

Some solved entries appear below for comparison.
{"structureSmilesString": "C#CCOCCOCCNc1c(NCCCCCCO[C@]2(C(=O)O)C[C@H](O)[C@@H](NC(=O)CO)[C@H]([C@H](O)[C@H](O)CNC(=O)c3cccc(C(F)F)c3)O2)c(=O)c1=O", "Kd": "1 to 10 µM"}
{"structureSmilesString": "C#CCOCCCCCCO[C@]1(C(=O)O)C[C@H](O)[C@@H](NC(=O)Cc2nn[nH]n2)[C@H]([C@H](O)[C@H](O)CNC(=O)Cc2ccc(Cl)cc2)O1", "Kd": "> 10 µM"}
{"structureSmilesString": "C#CCCOc1ccc(CO[C@]2(C(=O)O)C[C@H](O)[C@@H](NC(=O)CO)[C@H]([C@H](O)[C@H](O)CNC(=O)Cc3ccc(N4CCOCC4)cc3)O2)cc1", "Kd": "< 1 µM"}
{"structureSmilesString": "CC(=O)NCCOCCOCCOCCOCCNc1c(NCCCCCCO[C@]2(C(=O)O)C[C@H](O)[C@@H](NC(C)=O)[C@H]([C@H](O)[C@H](O)CNC(=O)Cc3ccc(Cl)cc3)O2)c(=O)c1=O", "Kd": "1 to 10 µM"}

Query :: I have this compound here, CC(=O)NCCOCCOCCOCCOCCC(=O)NCCCCCO[C@]1(C(=O)O)C[C@H](O)[C@@H](NC(C)=O)[C@H]([C@H](O)[C@H](O)CNC(=O)Cc2ccc(Cl)cc2)O1 , and I need its recorded Kd.
Result :: 1 to 10 µM

----------
Below: a set of entries, each annotated with reported pKd.
Target: cynomolgus Siglec-2/CD22 (Macaca fascicularis, UniProt A0A2K5WCZ6)
Sequence (A0A2K5WCZ6 entry or part of it): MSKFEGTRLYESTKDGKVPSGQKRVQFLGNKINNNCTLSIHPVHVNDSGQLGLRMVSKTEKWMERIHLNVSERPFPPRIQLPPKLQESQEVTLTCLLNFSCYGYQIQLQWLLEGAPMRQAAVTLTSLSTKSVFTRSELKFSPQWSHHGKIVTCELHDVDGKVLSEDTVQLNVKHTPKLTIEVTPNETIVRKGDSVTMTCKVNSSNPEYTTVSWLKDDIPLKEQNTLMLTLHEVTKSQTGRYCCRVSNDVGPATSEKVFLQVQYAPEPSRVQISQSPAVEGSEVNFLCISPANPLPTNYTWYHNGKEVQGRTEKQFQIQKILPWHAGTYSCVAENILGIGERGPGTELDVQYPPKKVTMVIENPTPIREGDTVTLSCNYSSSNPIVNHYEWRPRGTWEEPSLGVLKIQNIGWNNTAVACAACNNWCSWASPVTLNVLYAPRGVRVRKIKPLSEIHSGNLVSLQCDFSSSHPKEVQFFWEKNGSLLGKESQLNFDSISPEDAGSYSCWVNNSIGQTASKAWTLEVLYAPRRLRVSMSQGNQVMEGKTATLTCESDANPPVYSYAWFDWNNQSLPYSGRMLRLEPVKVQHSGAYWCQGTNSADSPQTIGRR
Assay: biochemical
Settings: SPR, steady-state analysis; read-out: Affinity cyno CD22
pKd: −log10 of the molar value.

Some solved entries appear below for comparison.
{"compound": "C#CCOCCOCCO[C@]1(C(=O)O)C[C@H](O)[C@@H](NC(=O)CS)[C@H]([C@H](O)[C@H](O)CNC(=O)Cc2ccc(-c3ccc(O)cc3)cc2)O1 [Compound 69]", "pKd": "< 5.00"}
{"compound": "C#CCCOc1ccc(CO[C@]2(C(=O)O)C[C@H](O)[C@@H](NC(=O)CO)[C@H]([C@H](O)[C@H](O)CNC(=O)Cc3ccc(-c4ccccc4)cc3)O2)cc1 [Compound 37]", "pKd": "> 6.00"}
{"compound": "C#CCCOc1ccc(CO[C@]2(C(=O)O)C[C@H](O)[C@@H](NC(=O)CO)[C@H]([C@H](O)[C@H](O)CNC(=O)C(OC)(c3ccccc3)C(F)(F)F)O2)cc1 (some centres unmarked) [Compound 171]", "pKd": "5.00 to 6.00"}
{"compound": "C#CCOCCOCCO[C@]1(C(=O)O)C[C@H](O)[C@@H](NC(=O)CO)[C@H]([C@H](O)[C@H](O)CNC(=O)CCCCCCCCCCCCCCC)O1 [Compound 13]", "pKd": "< 5.00"}

// switching to the query compound
Query :: So what pKd did CC(=O)NCCOCCOCCOCCOCc1cn(CCCCCCO[C@]2(C(=O)O)C[C@H](O)[C@@H](NC(=O)CO)[C@H]([C@H](O)[C@H](O)CNC(=O)Cc3ccc(Cl)cc3)O2)nn1 [Cpd. 246] get with cynomolgus Siglec-2/CD22 (Macaca fascicularis, UniProt A0A2K5WCZ6)?
Result :: > 6.00

----------
Reported Kd, mouse Siglec-2-Fc-Avi (CD22) (Mus musculus, UniProt P35329).

Some solved entries appear below for comparison.
{"structureSmilesString": "C#CCCOc1ccc(CS[C@]2(C(=O)O)C[C@H](O)[C@@H](NC(=O)CO)[C@H]([C@H](O)[C@H](O)CNC(=O)Cc3ccc(-c4ccc(O)cc4)cc3)O2)cc1", "Kd": "< 1 µM"}
{"structureSmilesString": "C#CCCOc1ccc(CO[C@]2(C(=O)O)C[C@H](O)[C@@H](NC(=O)CO)[C@H]([C@H](O)[C@H](O)CNC(=O)Cc3ccc(-c4ccc(O)cc4)cc3)O2)cc1O", "Kd": "< 1 µM"}
{"structureSmilesString": "CC(=O)NCCOCCOCCOCCOCCn1cc(CCCCCCO[C@]2(C(=O)O)C[C@H](O)[C@@H](NC(C)=O)[C@H]([C@H](O)[C@H](O)CNC(=O)c3cccc(Cl)c3)O2)nn1", "Kd": "> 10 µM"}

Query :: I have this compound here, C#CCOCCOCCO[C@]1(C(=O)O)C[C@H](O)[C@@H](NC(=O)CO)[C@H]([C@H](O)[C@H](O)CNC(=O)Cc2ccc(-c3cc[nH]c(=O)c3)cc2)O1 , and I need its recorded Kd.
Result :: > 10 µM

Query :: I have this compound here, CC(=O)NCCOCCOCCOCCOCCn1cc(COCCCCCCO[C@]2(C(=O)O)C[C@H](O)[C@@H](NC(=O)CO)[C@H]([C@H](O)[C@H](O)CNC(=O)Cc3ccc(Cl)cc3)O2)nn1 , and I need its recorded Kd.
Result :: 1 to 10 µM
